Data origin: patent US20110059095A1

Quick reference for pEC50 among some binders
# target entity: T1, Peptide A (human PAR-2), unbiotinylated (Human)
# T1 construct: also called Peptide A No Biotin
# T1 peptide: GTNRSSKGRSLIGKVDGT
# assay method text: peptide ELISA titration
# Procedure: Anti-PAR-2 antibodies were tested for their ability to bind to the PAR-2 peptides. […] Detection of bound antibodies was determined with Horse-Radish Peroxidase (HRP) conjugated anti-mouse or human IgG (Jackson Immuno Research Lab, West Grove, Pa.) and developed by standard colorimetric response using tetramethylbenzidine (TMB) substrate. Absorbance was read at OD₄₅₀ for 0.1 second. […]
pEC50: −log10 of the molar value.
reported property: pEC50

binder	reported property	reading
H4H585P (antibody, human IgG4, V domains shown, also called H1H585P variable regions) VH: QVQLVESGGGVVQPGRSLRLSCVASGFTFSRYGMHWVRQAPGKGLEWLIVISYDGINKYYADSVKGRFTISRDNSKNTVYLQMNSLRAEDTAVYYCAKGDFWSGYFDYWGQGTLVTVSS VL: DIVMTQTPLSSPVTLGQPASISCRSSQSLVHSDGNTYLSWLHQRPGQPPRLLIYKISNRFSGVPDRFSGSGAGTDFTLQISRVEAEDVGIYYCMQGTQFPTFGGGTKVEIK	pEC50	10.77
H4H584P (antibody, human IgG4, V domains shown, also called H1H584P variable regions) VH: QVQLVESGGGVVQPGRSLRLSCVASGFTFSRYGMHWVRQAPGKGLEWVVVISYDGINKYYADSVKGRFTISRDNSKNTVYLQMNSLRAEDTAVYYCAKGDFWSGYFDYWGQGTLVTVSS VL: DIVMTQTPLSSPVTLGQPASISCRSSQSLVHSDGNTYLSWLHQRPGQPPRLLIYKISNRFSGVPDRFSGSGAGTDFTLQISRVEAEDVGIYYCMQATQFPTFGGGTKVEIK	pEC50	10.92
H4H579P (antibody, human IgG4, V domains shown, also called H1H579P variable regions) VH: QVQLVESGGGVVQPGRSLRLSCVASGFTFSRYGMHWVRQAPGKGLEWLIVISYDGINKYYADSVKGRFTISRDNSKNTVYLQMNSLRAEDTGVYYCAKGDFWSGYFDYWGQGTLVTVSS VL: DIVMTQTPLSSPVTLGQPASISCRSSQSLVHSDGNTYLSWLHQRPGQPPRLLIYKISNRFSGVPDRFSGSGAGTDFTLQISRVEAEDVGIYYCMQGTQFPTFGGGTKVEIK	pEC50	10.42
